Target: T1, human galectin-10-His (recombinant human galectin-10 with TEV-cleavable N-terminal His-tag) (human)
T1 construct: SEC-MALLS: dimer in solution; also called Gal10-His; humanGal10-His
T1 chain: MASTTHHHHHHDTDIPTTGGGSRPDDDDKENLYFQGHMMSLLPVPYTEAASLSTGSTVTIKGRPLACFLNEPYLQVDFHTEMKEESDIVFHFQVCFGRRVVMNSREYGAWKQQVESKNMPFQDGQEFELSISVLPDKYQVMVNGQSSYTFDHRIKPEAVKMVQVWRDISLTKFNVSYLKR
Test: BLI tandem on galectin-10-His; competitor: saturating 4E08 mIgG1 (10 ug/mL)
# binding signal (nm) annotations
Give the quantity in nm, number only.

In the examples that follow, each entry is paired with its recorded binding signal (nm).
[[record]]
binder = "6A05 mouse IgG1 (antibody, V domains shown, also called 6A05 mIgG1) VH: EVQLVESGGGLVQPGGSLRLSCAASGFTFSSYAMSWVRQAPGKGLEWVSAINSGGGWTSYVDSVKGRFTISRDNAKNTLYLQMDSLKPEDTAVYYCTKYSGPELNTQYGMDYWGKGTLVTVSS VL: NFMLTQPSAVSVSLGQTARITCQGGNFGSYYASWYQQKPGQAPVLVIYRDSGRPSGIPERFSGSSSGDTATLTISGAQAEDEADYYCQSGSSSDNTVFGGGTHLTVL"
assay_value = -0.03

[[record]]
binder = "2F09 mouse IgG1 (antibody, V domains shown, VH on mouse IgG1 heavy chain constant domains (CH1-CH2-CH3), VL on mouse lambda light chain constant domain; also called 2F09 mIgG1) VH: QVQVQESGPGLVKPSQTLSLTCTVSGGSITTNYFYWSWIRQSPGKGLEWIGAIAYSGRTYYSPSLKSRTSISRDTSNNQFTLQLSSVTPEDTAVYYCARGPKGLASYYDYWGQGTQVTVSS VL: SSALTQPSAVSVSLGQTARITCQGGNFGYYYVSWYQQKPGQAPVLVIYRDSGRPSGIPERFSGSSSGDTATLTISGAQAEDEADYYCQSGSSSDNTVFGGGTHLTVL"
assay_value = 0.1


IN: In one line, give reported binding signal (nm) of the entry 1C09 mouse IgG1 (antibody, V domains shown, VH on mouse IgG1 heavy chain constant domains (CH1-CH2-CH3), VL on mouse lambda light chain constant domain; also called 1C09 mIgG1) VH: QVQLVESGPGLVKPSQTLSLTCTVSGGSITTNSYYWSWIRQPPGKGLEWMGAIAYSGSTYYSPSLKSRTSISRDTSKNQFTLHLSSVTPEDTAVYYCARRPNWYRALDAWGQGTLVTVSS VL: NFMLTQPSAVSVSLGQTARITCQGANLGRYYGIWYQQKPGQAPVQVIYGDSNRPSGIPERFSGSSSGGTATLTISGAQAEDEADYYCQSYESSTSPVFGGGTHLTVL .
OUT: 0.08
